Provide the recorded -logMIC for the entries that follow.
System: Candida albicans
Experiment: Antifungal activity against Candida albicans assessed as growth inhibition after 48 hr by tube dilution method
Assay type: functional
One number for each entry.

O=C(Nc1ccccc1Cl)c1ccc(/N=N\c2c[nH]c3ccccc23)cc1 | 1.48
O=C(Nc1cccc([N+](=O)[O-])c1)c1ccc(/N=N\c2c[nH]c3ccccc23)cc1 | 1.49
O=C(Nc1ccccc1Cl)c1ccccc1/N=N\c1c[nH]c2ccccc12 | 1.48

Okay, next one:
GET /value?item= Cc1cccc(NC(=O)c2ccc(/N=N\c3c[nH]c4ccccc34)cc2)c1 &field=-logMIC returns 1.45

====

System: Escherichia coli
Experiment: Antibacterial activity against Escherichia coli assessed as growth inhibition after 24 hr by tube dilution method
Format: functional
Measured quantity: -logMIC

// below: answered compounds
O=C(Nc1ccccc1)c1ccccc1/N=N\c1c[nH]c2ccccc12 | 1.74
COc1ccccc1NC(=O)c1ccc(/N=N\c2c[nH]c3ccccc23)cc1 | 1.47
O=C(Nc1ccccc1Cl)c1ccccc1/N=N\c1c[nH]c2ccccc12 | 1.48
O=C(Nc1ccc([N+](=O)[O-])cc1)c1ccc(/N=N\c2c[nH]c3ccccc23)cc1 | 1.79

For each of the compounds below, state -logMIC.
1. Cc1cccc(NC(=O)c2ccc(/N=N\c3c[nH]c4ccccc34)cc2)c1C
2. Cc1ccc(C)c(NC(=O)c2ccccc2/N=N\c2c[nH]c3ccccc23)c1

**A:**
1.47
1.47

====

Tested on: Bacillus subtilis
Assay: Antibacterial activity against Bacillus subtilis assessed as growth inhibition after 24 hr by tube dilution method
Format: functional
Provide the recorded -logMIC for the entries that follow.
Answers are plain numbers.

// below: answered compounds
O=C(Nc1ccccc1Cl)c1ccccc1/N=N\c1c[nH]c2ccccc12 | 1.48
Cc1cccc(NC(=O)c2ccc(/N=N\c3c[nH]c4ccccc34)cc2)c1C | 1.47
Cc1ccc(NC(=O)c2ccccc2/N=N\c2c[nH]c3ccccc23)cc1 | 1.45

Okay, next one:
Tested on Bacillus subtilis, the item Cc1ccccc1NC(=O)c1ccccc1/N=N\c1c[nH]c2ccccc12 showed -logMIC equal to 1.45

====

Test system: Bacillus subtilis
Assay: Antibacterial activity against Bacillus subtilis assessed as growth inhibition after 24 hr by tube dilution method
Assay type: functional
Provide the recorded -logMIC for the entries that follow.
Answers are plain numbers.

O=C(Nc1ccccc1)c1ccccc1/N=N\c1c[nH]c2ccccc12 | 1.74
O=C(Nc1cccc([N+](=O)[O-])c1)c1ccc(/N=N\c2c[nH]c3ccccc23)cc1 | 1.79

For each of the compounds below, state -logMIC.
1. O=C(Nc1ccc(Cl)cc1)c1ccccc1/N=N\c1c[nH]c2ccccc12
2. Cc1ccc(NC(=O)c2ccc(/N=N\c3c[nH]c4ccccc34)cc2)cc1

**A:**
[1.48, 1.45]

For each of the compounds below, state -logMIC.
1. O=C(Nc1ccccc1)c1ccc(/N=N\c2c[nH]c3ccccc23)cc1
2. Cc1cccc(NC(=O)c2ccccc2/N=N\c2c[nH]c3ccccc23)c1
3. Cc1ccccc1NC(=O)c1ccc(/N=N\c2c[nH]c3ccccc23)cc1
4. O=C(Nc1cccc(Cl)c1)c1ccccc1/N=N\c1c[nH]c2ccccc12

**A:**
[1.44, 1.75, 1.45, 1.48]

====

System: MCF7
Test: Cytotoxicity against Homo sapiens (human) MCF7 cells assessed as growth inhibition after 72 hr by MTT assay
Assay type: functional, cell-based
Measured quantity: IC50

Cc1ccc(NC(=O)c2ccc(/N=N\c3c[nH]c4ccccc34)cc2)cc1 | 0.0424 uM/ml

For each of the compounds below, state IC50.
1. O=C(Nc1ccccc1Cl)c1ccc(/N=N\c2c[nH]c3ccccc23)cc1
2. COc1ccccc1NC(=O)c1ccc(/N=N\c2c[nH]c3ccccc23)cc1
3. Cc1cccc(NC(=O)c2ccccc2/N=N\c2c[nH]c3ccccc23)c1C
4. Cc1ccccc1NC(=O)c1ccccc1/N=N\c1c[nH]c2ccccc12
5. O=C(Nc1cccc(Cl)c1)c1ccc(/N=N\c2c[nH]c3ccccc23)cc1
6. Cc1ccccc1NC(=O)c1ccc(/N=N\c2c[nH]c3ccccc23)cc1

**A:**
0.112 uM/ml
0.0865 uM/ml
0.1087 uM/ml
0.1412 uM/ml
0.0827 uM/ml
0.0734 uM/ml
